- Tested on: HDAC (Mouse Liver Extract)
- Construct: Mouse liver enzyme (10 mg/ml) was diluted 1:6 with HDAC buffer
- method: HDAC inhibition assay using Boc-Lys(Ac)-AMC substrate, mouse liver enzyme
- Assay type: biochemical
- stated conditions: 10 μM
readout: HDAC Inhibition % (10 μM) (%)

[[record]]
substance_smiles = "Nc1ccccc1NC(=O)c1ccc(/C=C(/C(=O)NC2CC2)c2ccc3ccccc3c2)cc1"
recorded_result = 63.5

[[record]]
substance_smiles = "O=C(/C=C/c1ccc(/C=C(/C(=O)NC2CC2)c2ccc(F)cc2)cc1)NCc1ccc(C(=O)NO)cc1"
recorded_result = 70.3


A = O=C(/C=C/c1ccc(/C=C(/C(=O)NC2CC2)c2cccc(Cl)c2)cc1)NCCCCCC(=O)NO
B = Nc1ccccc1NC(=O)/C=C/c1ccc(/C=C(/C(=O)NC2CC2)c2cccnc2)cc1
## Input Lowest HDAC Inhibition % (10 μM)? choose A or B Answer by stating the label of the chosen item.
## Output B
(B: 58.0%, A: 100.0%)

###

- System: HDAC (Mouse Liver Extract)
- Construct: Mouse liver enzyme (10 mg/ml) was diluted 1:6 with HDAC buffer
- method: HDAC inhibition assay using Boc-Lys(Ac)-AMC substrate, mouse liver enzyme
- Type: biochemical
- stated conditions: 1 μM
readout: HDAC Inhibition % (1 μM) (%)

A selection of reference data follows.
[[record]]
compound = "O=C(/C=C/c1ccc(C=C(C(=O)NC2CC2)c2cccs2)cc1)NCc1ccc(C(=O)NO)cc1 (stereo in doubt) [Example 94]"
readout = "HDAC Inhibition % (1 μM)"
recorded_result = 99.8

[[record]]
compound = "O=C(/C=C/c1ccc(/C=C(/C(=O)NC2CC2)c2ccsc2)cc1)NO [Example 38]"
readout = "HDAC Inhibition % (1 μM)"
recorded_result = 84.4

[[record]]
compound = "Nc1ccccc1NC(=O)c1ccc(/C=C(/C(=O)NC2CC2)c2ccc(-c3ccccc3)cc2)cc1 [Example 125]"
readout = "HDAC Inhibition % (1 μM)"
recorded_result = 31.5


1 = CNC(=O)/C(=C/c1ccc(C(=O)Nc2ccccc2N)cc1)c1ccc(F)cc1 [Example 134]
2 = O=C(/C=C/c1ccc(/C=C(/C(=O)N2CCOCC2)c2ccccc2F)cc1)NO [Example 16]
3 = Nc1ccccc1NC(=O)/C=C/c1ccc(/C=C(/C(=O)NC2CC2)c2ccc3c(c2)OCO3)cc1 [Example 64]
## Input Rank the 3 compounds: largest HDAC Inhibition % (1 μM) first, smallest last. Answer format: list of labels, ordered as asked.
## Output 2, 1, 3
(2: 98.1%, 1: 38.2%, 3: 22.6%)

###

- System: HDAC (Mouse Liver Extract)
- Construct: Mouse liver enzyme (10 mg/ml) was diluted 1:6 with HDAC buffer
- method: HDAC inhibition assay using Boc-Lys(Ac)-AMC substrate, mouse liver enzyme
- Type: biochemical
- stated conditions: 1 μM
readout: HDAC Inhibition % (1 μM) (%)

A selection of reference data follows.
[[record]]
molecule = "Cc1ccc(/C(=C\\c2ccc(/C=C/C(=O)Nc3ccccc3N)cc2)C(=O)NC2CC2)cc1 [Example 67]"
recorded_result = 31.5

[[record]]
molecule = "O=C(/C=C/c1ccc(/C=C(/C(=O)N2CCOCC2)c2ccccc2F)cc1)NCc1ccc(C(=O)NO)cc1 [Example 98]"
recorded_result = 91.5

[[record]]
molecule = "O=C(NC1CC1)/C(=C/c1ccc(C(=O)NCc2ccc(C(=O)NO)cc2)cc1)c1ccc(C(F)(F)F)cc1 [Example 158]"
recorded_result = 88.7


1 = Nc1ccccc1NC(=O)c1ccc(/C=C(/C(=O)NC2CC2)c2ccc(F)c(F)c2)cc1 [Example 115]
2 = O=C(/C=C/c1ccc(/C=C(/C(=O)NCc2ccc(F)cc2)c2ccc(F)cc2)cc1)NO [Example 34]
## Input Hi team, can someone confirm which has the larger HDAC Inhibition % (1 μM): 1 or 2 ? Thanks. Answer by stating the label of the chosen item.
## Output 2
(2: 64.8%, 1: 31.1%)
